System: HeLa
Experiment: Cytotoxicity against human HeLa cells up to 40 uM after 24 hrs by PrestoBlue cell viability assay
Type: cell-based
Where a SMILES comes first, the peptide text is derived from it. Bridges are numbered along the chain shown (N, C = ends).
measured_metric: Activity

| molecule | recorded_result |
| --- | --- |
| CC[C@H](C)[C@@H]1NC(=O)[C@@H]2CCCN2C(=O)[C@@H]2CCCN2C(=O)[C@H]([C@@H](C)CC)NC(=O)[C@H](CO)NC(=O)[C@H](CCCCN)NC(=O)[C@H]([C@@H](C)O)NC(=O)[C@@H]2CSSC[C@H](NC1=O)C(=O)N[C@@H](CCCCN)C(=O)N[C@@H](CCCNC(=N)N)C(=O)N1CCC[C@H]1C(=O)N1CCC[C@H]1C(=O)NCC(=O)N[C@@H](Cc1ccccc1)C(=O)N[C@@H](CO)C(=O)N1CCC[C@H]1C(=O)N[C@@H](CC(C)C)C(=O)N2 (cyclo(CKRPPGFSPLCTKSIPPI); disulfide 1-11) | Non-Toxic |
| CC[C@H](C)[C@@H]1NC(=O)[C@@H]2CCCN2C(=O)[C@@H]2CCCN2C(=O)[C@H]([C@@H](C)CC)NC(=O)[C@H](CO)NC(=O)[C@H](CCCCN)NC(=O)[C@H]([C@@H](C)O)NC(=O)[C@@H](N)CSSC[C@@H](C(=O)N[C@@H](CCCCN)C(=O)N[C@@H](CCCNC(=N)N)C(=O)N2CCC[C@H]2C(=O)N2CCC[C@H]2C(=O)NCC(=O)N[C@@H](Cc2ccccc2)C(=O)N[C@@H](CO)C(=O)N2CCC[C@H]2C(=O)N[C@@H](CC(C)C)C(=O)O)NC1=O (H-CTKSIPPICKRPPGFSPL-OH; disulfide 1-9) | Non-Toxic |
| CC(C)C[C@H](NC(=O)[C@@H]1CCCN1C(=O)[C@H](CO)NC(=O)[C@H](Cc1ccccc1)NC(=O)CNC(=O)[C@@H]1CCCN1C(=O)[C@@H]1CCCN1C(=O)[C@H](CCCN=C(N)N)NC(=O)[C@@H](N)CCCCN)C(=O)O | Non-Toxic |

====

Assay: Drug uptake in ICR mouse serum at 10 mg/kg, po after 4 hrs
Format: ADME, organism-based
Details: read-out: Drug uptake
Where a SMILES comes first, the peptide text is derived from it. Bridges are numbered along the chain shown (N, C = ends).

| molecule | concentration at 4 h / µM |
| --- | --- |
| CC[C@H](C)[C@@H]1NC(=O)[C@@H]2CCCN2C(=O)[C@@H]2CCCN2C(=O)[C@H]([C@@H](C)CC)NC(=O)[C@H](CO)NC(=O)[C@H](CCCCN)NC(=O)[C@H]([C@@H](C)O)NC(=O)[C@@H]2CSSC[C@H](NC1=O)C(=O)N[C@@H](CCCCN)C(=O)N[C@@H](CCCNC(=N)N)C(=O)N1CCC[C@H]1C(=O)N1CCC[C@H]1C(=O)NCC(=O)N[C@@H](Cc1ccccc1)C(=O)N[C@@H](CO)C(=O)N1CCC[C@H]1C(=O)N[C@@H](CC(C)C)C(=O)N2 (cyclo(CKRPPGFSPLCTKSIPPI); disulfide 1-11) | 11.5 |

====

The following compounds are shown together with reported remaining at 6 h, 100 µM values.
Test: Stability in pH 7 phosphate buffer at 0.1 mM at 100 degC after 6 hrs by HPLC-MS analysis
Assay type: physicochemical
Settings: read-out: Stability
Where a SMILES comes first, the peptide text is derived from it. Bridges are numbered along the chain shown (N, C = ends).

| compound | remaining at 6 h, 100 µM |
| --- | --- |
| CC(C)C[C@@H]1NC(=O)[C@@H]2CCCN2C(=O)[C@H](CO)NC(=O)[C@H](Cc2ccccc2)NC(=O)CNC(=O)[C@@H]2CCCN2C(=O)[C@@H]2CCCN2C(=O)[C@H](CCCNC(=N)N)NC(=O)[C@H](CCCCN)NC(=O)[C@@H]2CSSC[C@H](NC1=O)C(=O)N[C@@H](Cc1ccccc1)C(=O)N1CCC[C@H]1C(=O)N[C@@H](CC(=O)O)C(=O)NCC(=O)N[C@@H](CCCNC(=N)N)C(=O)N2 (cyclo(CFPDGRCKRPPGFSPL); disulfide 1-7) | > 80% |
| CC(C)C[C@@H]1NC(=O)[C@@H]2CCCN2C(=O)[C@H](CO)NC(=O)[C@H](Cc2ccccc2)NC(=O)CNC(=O)[C@@H]2CCCN2C(=O)[C@@H]2CCCN2C(=O)[C@H](CCCNC(=N)N)NC(=O)[C@H](CCCCN)NC(=O)[C@@H](NC(=O)[C@H](CCCNC(=N)N)NC(=O)CN)CSSC[C@@H](C(=O)N[C@@H](Cc2ccccc2)C(=O)N2CCC[C@H]2C(=O)N[C@@H](CC(=O)O)C(=O)O)NC1=O (H-GRCKRPPGFSPLCFPD-OH; disulfide 3-13) | > 80% |
| CC(C)C[C@H](NC(=O)[C@@H]1CCCN1C(=O)[C@H](CO)NC(=O)[C@H](Cc1ccccc1)NC(=O)CNC(=O)[C@@H]1CCCN1C(=O)[C@@H]1CCCN1C(=O)[C@H](CCCN=C(N)N)NC(=O)[C@@H](N)CCCCN)C(=O)O | > 80% |

====

Assay: Stability of the compound assessed as trypsin (unknown origin)-mediated compound degradation at enzyme to peptide ratio of 1:50 after 6 hrs by HPLC-MS analysis
Assay type: ADME
Conditions: human
Where a SMILES comes first, the peptide text is derived from it. Bridges are numbered along the chain shown (N, C = ends).
measured_metric: Stability

| compound | recorded_result |
| --- | --- |
| CC[C@H](C)[C@@H]1NC(=O)[C@@H]2CCCN2C(=O)[C@@H]2CCCN2C(=O)[C@H]([C@@H](C)CC)NC(=O)[C@H](CO)NC(=O)[C@H](CCCCN)NC(=O)[C@H]([C@@H](C)O)NC(=O)[C@@H](N)CSSC[C@@H](C(=O)N[C@@H](CCCCN)C(=O)N[C@@H](CCCNC(=N)N)C(=O)N2CCC[C@H]2C(=O)N2CCC[C@H]2C(=O)NCC(=O)N[C@@H](Cc2ccccc2)C(=O)N[C@@H](CO)C(=O)N2CCC[C@H]2C(=O)N[C@@H](CC(C)C)C(=O)O)NC1=O (H-CTKSIPPICKRPPGFSPL-OH; disulfide 1-9) | Unstable |
| CC(C)C[C@@H]1NC(=O)[C@@H]2CCCN2C(=O)[C@H](CO)NC(=O)[C@H](Cc2ccccc2)NC(=O)CNC(=O)[C@@H]2CCCN2C(=O)[C@@H]2CCCN2C(=O)[C@H](CCCNC(=N)N)NC(=O)[C@H](CCCCN)NC(=O)[C@@H](NC(=O)[C@H](CCCNC(=N)N)NC(=O)CN)CSSC[C@@H](C(=O)N[C@@H](Cc2ccccc2)C(=O)N2CCC[C@H]2C(=O)N[C@@H](CC(=O)O)C(=O)O)NC1=O (H-GRCKRPPGFSPLCFPD-OH; disulfide 3-13) | Unstable |

====

Tested on: HeLa
Test: Cytotoxicity against human HeLa cells up to 40 uM after 24 hrs by PrestoBlue cell viability assay
Assay type: cell-based
Where a SMILES comes first, the peptide text is derived from it. Bridges are numbered along the chain shown (N, C = ends).

| compound | Activity |
| --- | --- |
| CC(C)C[C@@H]1NC(=O)[C@@H]2CCCN2C(=O)[C@H](CO)NC(=O)[C@H](Cc2ccccc2)NC(=O)CNC(=O)[C@@H]2CCCN2C(=O)[C@@H]2CCCN2C(=O)[C@H](CCCNC(=N)N)NC(=O)[C@H](CCCCN)NC(=O)[C@@H]2CSSC[C@H](NC1=O)C(=O)N[C@@H](Cc1ccccc1)C(=O)N1CCC[C@H]1C(=O)N[C@@H](CC(=O)O)C(=O)NCC(=O)N[C@@H](CCCNC(=N)N)C(=O)N2 (cyclo(CFPDGRCKRPPGFSPL); disulfide 1-7) | Non-Toxic |
| CC(C)C[C@@H]1NC(=O)[C@@H]2CCCN2C(=O)[C@H](CO)NC(=O)[C@H](Cc2ccccc2)NC(=O)CNC(=O)[C@@H]2CCCN2C(=O)[C@@H]2CCCN2C(=O)[C@H](CCCNC(=N)N)NC(=O)[C@H](CCCCN)NC(=O)[C@@H](NC(=O)[C@H](CCCNC(=N)N)NC(=O)CN)CSSC[C@@H](C(=O)N[C@@H](Cc2ccccc2)C(=O)N2CCC[C@H]2C(=O)N[C@@H](CC(=O)O)C(=O)O)NC1=O (H-GRCKRPPGFSPLCFPD-OH; disulfide 3-13) | Non-Toxic |
| CC[C@H](C)[C@@H]1NC(=O)[C@@H]2CCCN2C(=O)[C@@H]2CCCN2C(=O)[C@H]([C@@H](C)CC)NC(=O)[C@H](CO)NC(=O)[C@H](CCCCN)NC(=O)[C@H]([C@@H](C)O)NC(=O)[C@@H]2CSSC[C@H](NC1=O)C(=O)N[C@@H](Cc1ccccc1)C(=O)N1CCC[C@H]1C(=O)N[C@@H](CC(=O)O)C(=O)NCC(=O)N[C@@H](CCCNC(=N)N)C(=O)N2 | Non-Toxic |
